target: tetrameric transthyretin (TTR) (UniProt P02766 21-147)
assay-procedure: SPR; OpenSPR (Nicoya), TTR immobilised on a COOH chip by amine coupling; Aβ peptides injected (Aβ C-terminals 2.4-48 µM; Aβ (1–40/42) 0.2-20 µM); PBS pH 6.8 with 0.005% Tween 20; 150 s association, 400 s dissociation; 1:1 interaction model
applied-conditions: both partners purified
Square brackets hold non-standard residues; d marks the D form. Ends that are not written are not given here.
property-label: pKd
Note: pKd values are expressed as the negative base-10 logarithm of concentration in M.

// known answers, use as guide
binder: LVFFAEDVGSNKGAIIGLMV (amyloid beta residues 17-36, all L; also called Aβ C-terminal fragment; source: bought: Sangon Biotech Co., Ltd. (Shanghai, China)) [WT Aβ (17–36)]
observed-measurement: 4.94

binder: LVFFAE[dD]VG[dS]NKGAIIGLMV (amyloid beta residues 17-36 with D-isomerized Asp and Ser; also called co-isomerized Aβ (17–36); source: bought: Sangon Biotech Co., Ltd. (Shanghai, China)) [dDdS Aβ (17–36)]
observed-measurement: 4.08

binder: LVFFAEDVG[dS]NKGAIIGLMV (amyloid beta residues 17-36 with D-isomerized Ser; also called single D-isomerized Aβ (17–36); source: bought: Sangon Biotech Co., Ltd. (Shanghai, China)) [dS Aβ (17–36)]
observed-measurement: 3.93

Ask | Give the reported value of pKd for this record: LVFFAE[dD]VGSNKGAIIGLMV (amyloid beta residues 17-36 with D-isomerized Asp; also called single D-isomerized Aβ (17–36); source: bought: Sangon Biotech Co., Ltd. (Shanghai, China)) [dD Aβ (17–36)]
Reply | 3.83
